- assaySystem: T1, EphB3, P54753
- T1 chain: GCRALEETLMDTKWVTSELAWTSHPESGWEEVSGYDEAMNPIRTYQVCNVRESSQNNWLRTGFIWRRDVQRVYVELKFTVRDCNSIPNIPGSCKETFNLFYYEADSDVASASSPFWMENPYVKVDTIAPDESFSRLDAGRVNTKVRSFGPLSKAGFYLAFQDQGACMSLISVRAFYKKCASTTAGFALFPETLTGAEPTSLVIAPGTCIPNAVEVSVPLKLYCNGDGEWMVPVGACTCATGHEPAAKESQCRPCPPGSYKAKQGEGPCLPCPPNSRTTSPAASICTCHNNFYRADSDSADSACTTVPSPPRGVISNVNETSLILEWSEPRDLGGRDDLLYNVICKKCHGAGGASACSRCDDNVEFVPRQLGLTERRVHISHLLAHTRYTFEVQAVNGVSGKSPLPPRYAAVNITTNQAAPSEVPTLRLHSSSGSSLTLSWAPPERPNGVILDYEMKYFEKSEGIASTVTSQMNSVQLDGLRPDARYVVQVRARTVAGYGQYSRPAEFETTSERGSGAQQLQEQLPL
- assayName: BLI
- conditionContext: modification not given
quantity: Kd (mM)

[I] KFQLFSPFLWGFEF [xEFN_RBD2]
[II] QEFSPNLWGLEFKKN [xEFN_RBD4]
Please tell me which of the two, I or II , has the higher reported Kd value. Pick one and reply with its label.
I
